Tested on: cardiac markers (NKX2.5, GATA4, Troponin I, Troponin T, MHCα) in WJCM
Test: qRT-PCR gene expression of cardiac-specific markers in WJCM
Settings: qRT-PCR; analogues at Vero IC50 concentration; Dox, 5FU, Cis as positive cardiotoxic drugs
Test readout: cardiac marker gene expression in WJCM (all markers together)

O=C(/C=C/c1ccc(S(=O)(=O)NCc2cccs2)cc1)NO ... drastic reduction
Cc1ccc(-c2oc3cc(C)ccc3c(=O)c2O)cc1 ... drastic reduction

---

Test system: cardiomyocytes (WJCM and H9C2 cells)
Assay: Cardiotoxicity across parameters as summarised in the discussion (WJCM and H9C2 cells)
Format: cell-based, human and rat
Conditions: analogues at Vero IC50 concentration, 24 h
Test readout: overall cardiotoxicity across the parameters analyzed

Cc1ccc(-c2oc3cc(C)ccc3c(=O)c2O)cc1 ... cardiotoxic
O=C(/C=C/c1ccc(S(=O)(=O)NCc2cccs2)cc1)NO ... cardiotoxic
Cc1ccc(-c2oc3ccccc3c(=O)c2O)cc1 ... cardiotoxic
